Target: APJ (Homo sapiens, UniProt P35414)
Test: APJ DiscoveRx PathHunter β-arrestin assay (antagonism of apelin-13)
Assay type: cell-based
Set-up: host or cells: Angiotensin II receptor-like 1 (AGTRL-1) Cell Line (PathHunter)
Settings: β-arrestin assay, n = 4 unless noted in parentheses; read-out: APJ Potency IC50 (μM) Ave. ± S.E.M.
Observed Property: IC50 (µM)
A number alone suffices; assume µM.

Below, 5 compounds whose answers are already recorded.
Compound	Recorded Number
Cc1ccnc(SCc2cc(=O)c(OC(=O)c3ccc(C)c([N+](=O)[O-])c3)co2)n1 [Compound 30]	4.7
O=C(Oc1coc(CSc2ncccn2)cc1=O)c1cccc([N+](=O)[O-])c1 [Compound 4]	75.7
Cc1ccnc(SCc2cc(=O)c(OC(=O)c3cccc([N+](=O)[O-])c3)co2)n1 [Compound 31]	59.2
O=C(Oc1coc(CSc2ncccn2)cc1=O)c1ccc(Cl)cc1 [Compound 5]	54.5
Cc1ccnc(SCc2cc(=O)c(OC(=O)c3cc([N+](=O)[O-])ccc3Cl)co2)n1 [Compound 41]	74.1

Turning to the following compound.
Which measured IC50 value corresponds to Cc1cc(C)nc(SCc2cc(=O)c(OC(=O)c3ccc(C)c([N+](=O)[O-])c3)co2)n1 [Compound 50] ?
25.3

###

Biological target: APJ (Homo sapiens, UniProt P35414)
Sequence (P35414 1-380): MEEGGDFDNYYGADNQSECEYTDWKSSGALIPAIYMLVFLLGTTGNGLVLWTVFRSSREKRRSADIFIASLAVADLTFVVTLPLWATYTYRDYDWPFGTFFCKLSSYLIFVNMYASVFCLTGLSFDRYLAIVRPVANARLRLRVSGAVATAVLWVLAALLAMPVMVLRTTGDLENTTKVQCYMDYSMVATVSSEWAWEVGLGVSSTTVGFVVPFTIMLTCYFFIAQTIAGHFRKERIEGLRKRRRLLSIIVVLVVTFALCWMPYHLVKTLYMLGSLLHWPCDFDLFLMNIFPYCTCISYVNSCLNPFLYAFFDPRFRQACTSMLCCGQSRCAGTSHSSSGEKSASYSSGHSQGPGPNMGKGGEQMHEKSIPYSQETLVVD
Assay: APJ DiscoveRx PathHunter β-arrestin assay (antagonism of apelin-13)
Type: cell-based
Parameters: host or cells: Angiotensin II receptor-like 1 (AGTRL-1) Cell Line (PathHunter)
Conditions: β-arrestin assay, n = 4 unless noted in parentheses; read-out: APJ Potency IC50 (μM) Ave. ± S.E.M.
Listed below: IC50 values for each entry.

Answered examples (5):
Smiles Repr	IC50
Cc1c(C(=O)Oc2coc(CSc3ncccn3)cc2=O)cccc1[N+](=O)[O-]	72.2 µM
Cc1cc(C)nc(SCc2cc(=O)c(OC(=O)c3cc([N+](=O)[O-])ccc3Cl)co2)n1	44.5 µM
Cc1ccnc(SCc2cc(=O)c(OC(=O)c3ccc([N+](=O)[O-])o3)co2)n1	> 79 µM
Cc1cc(C)nc(SCc2cc(=O)c(OC(=O)c3cccc([N+](=O)[O-])c3C)co2)n1	> 79 µM
Cc1ccnc(SCc2cc(=O)c(NC(=O)c3ccccc3)co2)n1	> 79 µM

Give APJ (Homo sapiens, UniProt P35414) IC50 for `O=C(Oc1coc(CSc2ccc(Cl)cc2)cc1=O)c1ccc(Cl)c([N+](=O)[O-])c1`
4.53 µM

Please state recorded IC50 (tested on APJ (Homo sapiens, UniProt P35414)) of `Cc1ccnc(SCc2cc(=O)c(OC(=O)c3ccsc3)co2)n1`
> 79 µM

# query: IC50 | item `Cc1ccnc(SCc2cc(=O)c(OC(=O)c3ccco3)co2)n1` | system: APJ (Homo sapiens, UniProt P35414)
> 79 µM

The reported numbers originate from patent US20140005181A1.
